# Protocol: Metabolic stability in liver microsomes assessed as half life after 30 mins by LC/MS/MS analysis in presence of NADPH
# Format: ADME, Microsome
Assay metric: half-life
Could you kindly put the unit after your number?

Field request: half-life | item: CN[C@@H](C)C(=O)Nc1ccc(Oc2ccc(OC)cc2)c(C(=O)NCc2csc(-c3cccs3)n2)c1
14.5 min

* * *

# Protocol: Stability in human plasma by LC/MS/MS analysis
# Format: ADME, cell-free
# Test parameters: read-out: Stability
Assay metric: half-life

Field request: half-life | item: CN[C@@H](C)C(=O)Nc1ccc(Oc2ccc(OC)cc2)c(C(=O)NCc2csc(-c3cccs3)n2)c1
> 2 h
